The entries below are paired with their reported growth inhibition.
- test: NCI Yeast Anticancer Drug Screen. Data for the cln2 rad14 strain (AID 165);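 note: 0% = growth equal to vehicle treated cultures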
- measurement_setup: S. cerevisiae cln2 rad14 strain, at 5.0 µM (retest, dose inferred, filed as 0.5), active compounds read high
Compounds without any hit were thinned out: in the full panel of roughly 79,000, 15% have a hit.

| molecule | unit_string | growth inhibition |
| --- | --- | --- |
| CC(=O)C1C2c3ccccc3C(c3ccccc32)C1C (stereo unspecified) | % | -85 |
| CCC[CH2][Sn]1([CH2]CCC)[O]Cc2nc(C)ccc2[O]1 | % | 15 |
| CC(=O)[O][Hg][c]1ccccc1N | % | 46 |
| COC1=C(C)C(=O)C2=C(C1=O)C(CO)N1C(C#N)C3CC4C(C1C2N1CCOC41)N3C (stereo unspecified) | % | 44 |
| CCCCN1C(=O)C2C(C1=O)C1(Cl)C(Cl)=C(Cl)C2(Cl)C1(Cl)Cl (stereo unspecified) | % | 13 |
| CC(=O)Nc1ccc(/C=N/N=C(/N)N[N+](=O)[O-])cc1 | % | -1 |
| CNC(Cc1ccccc1)c1ccc(OC)c(OC)c1 (stereo unspecified) | % | 18 |
| COC1CC2C(C[CH]1[Hg][Cl])C2(Cl)Cl (stereo unspecified) | % | 99 |
| OCC(O)C(O)CO (stereo unspecified) (tested in a mixture with another compound) | % | -60 |
| C1CC[N-]CC1.CC(=N\O)/C(C)=N/O.CC(=N\O)/C(C)=N/O.OC1[CH-]CCCC1.[Co+2] | % | 17 |
| CCC(C)(C)c1ccc(OP(=S)(S)Oc2ccc(C(C)(C)CC)cc2)cc1 | % | 4 |

The reported numbers originate from PubChem BioAssay (NCI).
